Tested on: VRE
Assay: Antimicrobial susceptibility test (disc diffusion), VRE
Assay type: cell-based, vancomycin resistant enterococci
Details: share of VRE strains classed sensitive; dash = none
result type: Sensitive % (%)
Field format: number, assumed %, no unit text.

Kindly note the recorded Sensitive % for CCC[C@@H]1C[C@@H](C(=O)N[C@@H]([C@H]2O[C@H](SC)[C@H](O)[C@@H](O)[C@H]2O)[C@H](C)Cl)N(C)C1 [Clindamycin] , which is 15

According to the records, this compound COc1cc(Cc2cnc(N)nc2N)cc(OC)c1OC [Trimethophrim] displays Sensitive % of 25

CC[C@H]1OC(=O)[C@H](C)[C@@H](O[C@H]2C[C@@](C)(OC)[C@@H](O)[C@H](C)O2)[C@H](C)[C@@H](O[C@@H]2O[C@H](C)C[C@H](N(C)C)[C@H]2O)[C@](C)(O)C[C@@H](C)C(=O)[C@H](C)[C@@H](O)[C@]1(C)O [Erythromycin] yielded Sensitive % of 10

Just so you know, measured Sensitive % for CN(C)[C@@H]1C(O)=C(C(N)=O)C(=O)[C@@]2(O)C(O)=C3C(=O)c4c(O)cccc4[C@@](C)(O)[C@H]3C[C@@H]12 [Tetracycline] came out at 40
